Source of measurements: a flash point compilation (Sun et al. 2020)

Values of flash point greater than or equal to 40 °C map to Fulfilled; values below map to Not fulfilled.

>  <molecule>
CC(C)(Cl)Cl

>  <label>
Not fulfilled

$$$$
>  <molecule>
CCCCCCO

>  <label>
Fulfilled

$$$$
>  <molecule>
CCC(C)OC (configuration not stated)

>  <label>
Not fulfilled

$$$$
>  <molecule>
CC(C)(C)S

>  <label>
Not fulfilled

$$$$
>  <molecule>
Cc1ccccc1N

>  <label>
Fulfilled

$$$$
>  <molecule>
CC1CCCC1

>  <label>
Not fulfilled

$$$$
>  <molecule>
C=C(C)C(=O)OC [methylmethacrylate]

>  <label>
Not fulfilled

$$$$
>  <molecule>
CCc1cccc(C)c1

>  <label>
Not fulfilled

$$$$
>  <molecule>
CCOC(=O)CCl [ethylchloroacetate]

>  <label>
Fulfilled

$$$$
>  <molecule>
COc1ccc(C)cc1

>  <label>
Fulfilled

$$$$
>  <molecule>
CCC(O)CO (configuration not stated)

>  <label>
Fulfilled

$$$$
>  <molecule>
CC(C)(C)c1cccc(N)c1

>  <label>
Fulfilled

$$$$
>  <molecule>
CCCCC

>  <label>
Not fulfilled

$$$$
>  <molecule>
Cc1ccc(F)cc1

>  <label>
Not fulfilled

$$$$
>  <molecule>
CC(C)=CC=C(C)C

>  <label>
Not fulfilled

$$$$
>  <molecule>
CCc1cccc(CC)c1

>  <label>
Fulfilled

$$$$
>  <molecule>
CCCCCCCCCl

>  <label>
Fulfilled

$$$$
>  <molecule>
CCCCCCCCCCCCCCCCC

>  <label>
Fulfilled

$$$$
>  <molecule>
C=CCCCCCCCCCCCCC

>  <label>
Fulfilled

$$$$
>  <molecule>
Cc1cc(C)nc(C)c1

>  <label>
Fulfilled

$$$$
>  <molecule>
CCC(C)(C)CC

>  <label>
Not fulfilled

$$$$
>  <molecule>
CCCOC(=O)c1ccccc1 [propylbenzoate]

>  <label>
Fulfilled

$$$$
>  <molecule>
C=C(CC)CCC

>  <label>
Not fulfilled

$$$$
>  <molecule>
COCCNCCOC

>  <label>
Fulfilled

$$$$
>  <molecule>
C=COC=C

>  <label>
Not fulfilled

$$$$
>  <molecule>
C#CCCCC

>  <label>
Not fulfilled

$$$$

* * *

assay-endpoint: flash point

>  <molecule>
CCCCCCCCCCCO [1-UNDECANOL]

>  <data-value>
115 °C

$$$$
>  <molecule>
CCCOC(C)=O [Propyl acetate]

>  <data-value>
10.6 °C

$$$$
>  <molecule>
Nc1ccccc1

>  <data-value>
71.0 °C

$$$$
>  <molecule>
CC(C)NC(C)C

>  <data-value>
-7.0 °C

$$$$
>  <molecule>
CCCCCCC(=O)O

>  <data-value>
115.0 °C

$$$$
>  <molecule>
CCCCC(C)CCC (centres undefined)

>  <data-value>
23.0 °C

$$$$
>  <molecule>
CCC(O)CC [3-Pentanol]

>  <data-value>
30.0 °C

$$$$
>  <molecule>
CCCCCCS

>  <data-value>
32.5 °C

$$$$
>  <molecule>
CCCCCCCC(=O)O

>  <data-value>
127.0 °C

$$$$
>  <molecule>
Oc1ccccc1

>  <data-value>
80 °C

$$$$
>  <molecule>
CCCCC(CC)C(=O)O (centres undefined)

>  <data-value>
110.0 °C

$$$$
>  <molecule>
CCC(C)(C)C(=O)O

>  <data-value>
79.0 °C

$$$$
>  <molecule>
CCCCCCCCCC(=O)O

>  <data-value>
148.0 °C

$$$$
>  <molecule>
C=CCCCCCCCCCC

>  <data-value>
67 °C

$$$$
